Molecular target: human AR (androgen receptor) (Homo sapiens, UniProt P10275)
Construct: expressed in transfected cells; host or cells: HEK293
Sequence (P10275 1-920): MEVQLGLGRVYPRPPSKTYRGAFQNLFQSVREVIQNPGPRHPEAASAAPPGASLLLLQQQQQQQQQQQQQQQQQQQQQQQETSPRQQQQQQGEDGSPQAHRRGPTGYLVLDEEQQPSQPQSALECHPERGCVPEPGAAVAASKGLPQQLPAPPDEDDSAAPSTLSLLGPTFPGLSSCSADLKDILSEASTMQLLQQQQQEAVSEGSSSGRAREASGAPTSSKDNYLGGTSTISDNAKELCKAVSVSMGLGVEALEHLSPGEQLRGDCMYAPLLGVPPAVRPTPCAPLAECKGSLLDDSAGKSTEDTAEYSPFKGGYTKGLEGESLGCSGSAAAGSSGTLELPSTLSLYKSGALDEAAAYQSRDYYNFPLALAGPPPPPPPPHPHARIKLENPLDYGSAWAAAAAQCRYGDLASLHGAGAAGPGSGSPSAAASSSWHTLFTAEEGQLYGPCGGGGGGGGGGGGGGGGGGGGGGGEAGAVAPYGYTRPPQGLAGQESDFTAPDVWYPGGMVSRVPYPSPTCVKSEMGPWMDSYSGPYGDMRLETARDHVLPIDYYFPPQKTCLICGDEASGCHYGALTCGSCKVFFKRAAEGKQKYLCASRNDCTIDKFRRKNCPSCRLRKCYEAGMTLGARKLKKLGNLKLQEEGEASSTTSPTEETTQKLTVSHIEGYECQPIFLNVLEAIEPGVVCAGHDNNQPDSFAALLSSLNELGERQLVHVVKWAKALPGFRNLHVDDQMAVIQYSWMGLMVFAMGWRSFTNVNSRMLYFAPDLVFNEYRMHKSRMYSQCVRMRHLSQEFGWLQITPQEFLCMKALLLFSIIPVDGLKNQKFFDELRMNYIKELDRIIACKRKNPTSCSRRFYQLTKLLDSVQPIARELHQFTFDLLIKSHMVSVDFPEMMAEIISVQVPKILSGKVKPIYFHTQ
Experiment: Steroid hormone nuclear receptor binding assay, AR
Conditions: HEK293 lysate, [3H]-methyltrienolone
Observable: Ki (nM)
Just the number please, in nM, no unit attached.

[Q] Please report the recorded Ki for Cc1c(N[C@H]2CC[C@H](O)[C@]2(C)O)ccc(C#N)c1Cl (single isomer, unassigned) .
[A] 38.1

[Q] Please report the recorded Ki for CCc1c(NC2CCOCC2(C)O)ccc(C#N)c1Cl (single isomer, unassigned; diastereomer 2) .
[A] 162

* * *

Target: human PR (progesterone receptor) (Homo sapiens, UniProt P06401)
Construct: expressed in transfected cells; host or cells: HEK293
Sequence (P06401 whole entry): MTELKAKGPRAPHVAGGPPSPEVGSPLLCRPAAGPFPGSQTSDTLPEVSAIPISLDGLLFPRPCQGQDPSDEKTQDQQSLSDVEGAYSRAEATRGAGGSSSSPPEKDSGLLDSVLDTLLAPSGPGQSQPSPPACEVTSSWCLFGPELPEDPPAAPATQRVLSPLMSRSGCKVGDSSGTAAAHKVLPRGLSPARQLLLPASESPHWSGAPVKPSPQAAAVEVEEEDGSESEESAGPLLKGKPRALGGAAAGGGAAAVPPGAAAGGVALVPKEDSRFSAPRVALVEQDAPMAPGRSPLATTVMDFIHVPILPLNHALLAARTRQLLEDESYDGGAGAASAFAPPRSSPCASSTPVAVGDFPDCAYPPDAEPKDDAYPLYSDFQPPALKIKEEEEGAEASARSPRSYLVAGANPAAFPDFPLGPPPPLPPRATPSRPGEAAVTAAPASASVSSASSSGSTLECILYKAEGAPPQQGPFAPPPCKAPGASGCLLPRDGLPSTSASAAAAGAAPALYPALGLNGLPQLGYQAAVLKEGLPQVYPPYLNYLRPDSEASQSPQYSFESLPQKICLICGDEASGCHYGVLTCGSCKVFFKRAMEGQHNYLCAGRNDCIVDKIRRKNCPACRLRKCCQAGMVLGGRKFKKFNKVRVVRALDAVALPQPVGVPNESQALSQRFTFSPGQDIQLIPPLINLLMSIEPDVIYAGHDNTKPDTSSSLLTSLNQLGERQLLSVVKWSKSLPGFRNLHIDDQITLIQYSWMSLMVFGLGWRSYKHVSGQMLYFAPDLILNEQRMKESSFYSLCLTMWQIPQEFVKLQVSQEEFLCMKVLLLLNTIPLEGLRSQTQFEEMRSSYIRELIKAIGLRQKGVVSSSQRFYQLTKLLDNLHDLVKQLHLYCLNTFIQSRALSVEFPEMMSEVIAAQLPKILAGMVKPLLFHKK
Experiment: Steroid hormone nuclear receptor binding assay, PR
Details: HEK293 lysate, [3H]-methyltrienolone
Observable: Ki (nM)
Just the number please, in nM, no unit attached.

[Q] Please report the recorded Ki for CCc1c(NC2CCOCC2(C)O)ccc(C#N)c1Cl (single isomer, unassigned; diastereomer 2) .
[A] 4290

* * *

Biological target: human GR (glucocorticoid receptor) (Homo sapiens, UniProt P04150)
Construct: expressed in transfected cells; host or cells: HEK293
Sequence (P04150 whole entry): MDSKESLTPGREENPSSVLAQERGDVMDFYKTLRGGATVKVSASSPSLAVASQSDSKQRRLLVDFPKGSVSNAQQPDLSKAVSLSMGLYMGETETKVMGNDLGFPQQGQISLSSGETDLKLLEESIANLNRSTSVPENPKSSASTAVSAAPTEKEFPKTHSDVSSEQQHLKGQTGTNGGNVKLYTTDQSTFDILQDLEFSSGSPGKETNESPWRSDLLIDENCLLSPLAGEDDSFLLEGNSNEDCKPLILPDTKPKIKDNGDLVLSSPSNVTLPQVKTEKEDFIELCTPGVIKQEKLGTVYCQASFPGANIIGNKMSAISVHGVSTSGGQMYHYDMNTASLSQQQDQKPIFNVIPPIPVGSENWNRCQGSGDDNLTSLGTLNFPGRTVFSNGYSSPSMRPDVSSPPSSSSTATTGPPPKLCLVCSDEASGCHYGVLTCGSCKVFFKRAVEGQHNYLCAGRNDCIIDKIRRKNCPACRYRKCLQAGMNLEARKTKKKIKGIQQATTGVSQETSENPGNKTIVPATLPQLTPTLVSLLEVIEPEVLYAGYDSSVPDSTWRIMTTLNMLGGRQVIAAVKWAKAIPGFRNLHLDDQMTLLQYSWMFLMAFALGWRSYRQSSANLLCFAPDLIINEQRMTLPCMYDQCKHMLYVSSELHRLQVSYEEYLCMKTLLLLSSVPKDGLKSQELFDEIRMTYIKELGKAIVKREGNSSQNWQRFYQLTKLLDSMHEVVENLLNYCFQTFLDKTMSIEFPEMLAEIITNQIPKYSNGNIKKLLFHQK
Assay: Steroid hormone nuclear receptor binding assay, GR
Conditions: HEK293 lysate, [3H]-dexamethasone; read-out: GR (Ki nM)
Observable: Ki

{"Compound": "CCc1c(NC2CCOCC2(C)O)ccc(C#N)c1Cl (single isomer, unassigned; diastereomer 2)", "Ki": "> 5820 nM"}

Read the next record carefully.
[Q] Please report the recorded Ki for Cc1c(N[C@H]2CC[C@H](O)[C@]2(C)O)ccc(C#N)c1Cl (single isomer, unassigned) .
[A] > 5730 nM

Just for reference, patent US8658693B2 is where these values come from.
